System: Escherichia coli
method description: In vitro antibacterial activity was measured against nalidixic acid resistant strain 5 from Escherichia coli KC-14
Assay type: functional
The entries below are paired with their reported MIC.
measure: MIC (µg/mL)

CCn1cc(C(=O)O)c(=O)c2ccc(C)nc21 [NALIDIXIC ACID]    100
O=C(O)c1c(=O)c2cc(F)c(N3CCC(O)C3)c3c2n2c(csc12)CO3 (centres undefined)    0.78
CC1COc2c(N3CCNCC3)c(F)cc3c(=O)c(C(=O)O)cn1c23 (centres undefined)    0.78
CN1CCN(c2c(F)cc3c(=O)c(C(=O)O)c4scc5n4c3c2OC5)CC1.Cl    0.39

###

Tested on: Pseudomonas aeruginosa
method description: In vitro antibacterial activity against Pseudomonas aeruginosa E-2,Pa(E),(gram-negative)
Assay type: functional
measure: MIC (µg/mL)

O=C(O)c1c(=O)c2cc(F)c(N3CCC(O)C3)c3c2n2c(csc12)CO3 (centres undefined)    0.39
O=C(O)c1c(=O)c2cc(F)c(N3CCOCC3)c3c2n2c(csc12)CO3    0.39
C[C@@H]1CN(c2c(F)cc3c(=O)c(C(=O)O)c4scc5n4c3c2OC5)C[C@H](C)N1.Cl    3.13
CN1CCN(c2c(F)cc3c(=O)c(C(=O)O)c4scc5n4c3c2OC5)CC1.Cl    0.78
CSc1c(F)cc2c(=O)c(C(=O)O)c3scc4n3c2c1OC4    3.13
COc1c(F)cc2c(=O)c(C(=O)O)c3scc4n3c2c1OC4    6.25
O=C1CN(c2c(F)cc3c(=O)c(C(=O)O)c4scc5n4c3c2OC5)CCN1    6.25
CC1COc2c(N3CCNCC3)c(F)cc3c(=O)c(C(=O)O)cn1c23 (centres undefined)    1.56

###

Test system: Escherichia coli
method description: In vitro antibacterial activity was measured against nalidixic acid resistant strain 6 from Escherichia coli KC-14
Assay type: functional
measure: MIC (mg/L)

CC1COc2c(N3CCNCC3)c(F)cc3c(=O)c(C(=O)O)cn1c23 (centres undefined)    0.78
O=C(O)c1c(=O)c2cc(F)c(N3CCC(O)C3)c3c2n2c(csc12)CO3 (centres undefined)    0.39
CCn1cc(C(=O)O)c(=O)c2ccc(C)nc21 [NALIDIXIC ACID]    100
CN1CCN(c2c(F)cc3c(=O)c(C(=O)O)c4scc5n4c3c2OC5)CC1.Cl    0.39

###

System: Staphylococcus aureus
method description: In vitro antibacterial activity against staphylococcus aureus IID 803,(gram-positive)
Format: functional
Threshold 0.2 µg/mL. MIC below it: true. MIC at it or above: false.

CSc1c(F)cc2c(=O)c(C(=O)O)c3scc4n3c2c1OC4    true
O=C1CN(c2c(F)cc3c(=O)c(C(=O)O)c4scc5n4c3c2OC5)CCN1    false
O=C(O)c1c(=O)c2cc(F)c(N3CCCCC3)c3c2n2c(csc12)CO3    true
O=C(O)c1c(=O)c2cc(F)c(N3CCC(O)C3)c3c2n2c(csc12)CO3 (stereo not drawn)    true
CC(=O)NC1CCN(c2c(F)cc3c(=O)c(C(=O)O)c4scc5n4c3c2OC5)C1 (stereo not drawn)    true
Cl.O=C(O)c1cn(C2CC2)c2cc(N3CCNCC3)c(F)cc2c1=O [CIPROFLOXACIN HYDROCHLORIDE]    false
CC1COc2c(N3CCNCC3)c(F)cc3c(=O)c(C(=O)O)cn1c23 (stereo not drawn)    false
CN1CCN(c2c(F)cc3c(=O)cc4scc5n4c3c2OC5)CC1    false
O=C(O)c1c(=O)c2cc(F)c(N3C[C@H](O)[C@@H](O)C3)c3c2n2c(csc12)CO3    false
CCn1cc(C(=O)O)c(=O)c2cc(F)c(N3CCNCC3)cc21 [NORFLOXACIN]    false
O=C(O)c1c(=O)c2cc(F)c(N3CCOCC3)c3c2n2c(csc12)CO3    true
